These data points were gathered from paper PMC5084153.

Target: T1, MRG2 chromodomain mutant E75A (MRG2^CDE75A) (Arabidopsis, UniProt Q4V3E2 51-123, E75A)
T1 sequence: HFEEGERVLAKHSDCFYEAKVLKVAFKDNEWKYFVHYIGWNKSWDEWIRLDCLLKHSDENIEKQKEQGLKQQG
Assay: ITC
Primed or numbered codes have the meaning given here. No end group written: not given here. Me3″ = trimethyl (trimethyl-lysine)
metric: Kd (µM)
Reply with just the number (in µM).

In: Look up Kd of ARTK(Me3″)QTARK (peptide, UniProt P68431 2-10, looked up, histone H3, residues 1-9, trimethylated at lysine 4) [histone H3K4me3 peptide (residues 1-9)] and report it.
Out: 450
